# test: Pharmacokinetic study in mice
# Format: in vivo, SD mice
# particulars: male, SD, mouse, po, gavage administration 100 mg/kg, plasma
# Protocol: The following experimental scheme was used to study the pharmacokinetic behavior of the compound of the present invention in mice and evaluate its pharmacokinetic characteristics. Experimental scheme: 3 healthy SD mice, male, weighing […], were given 100 mg/kg compound by gavage with a volume of 10 mL/kg, prepared with […] (w/v). Before the test, they were fasted for 12 hours and freely drank water. Food was uniformly consumed 4 h after administration. […]
Recorded Cmax values for a group of molecules are listed next.
Unit ng/mL implied. Number only.

- molecule: "CC(C)(O)c1cc2nn(C3CCN(CCCC4CCN(c5ccc6c(c5)C(=O)N(C5CCC(=O)NC5=O)C6=O)CC4)CC3)cc2cc1NC(=O)c1cccc(C(F)(F)F)n1 (stereo not shown) [Example 6]"
  Cmax [ng/mL]: 1860
- molecule: "COc1cc2nn(C3CCN(CC4CCN(c5ccc6c(c5)C(=O)N(C5CCC(=O)NC5=O)C6=O)CC4)CC3)cc2cc1NC(=O)c1cccc(C(F)(F)F)n1 (stereo not shown) [Example 2]"
  Cmax [ng/mL]: 1230
- molecule: "CC(C)(O)c1cc2nn(C3CCN(CC4CCN(c5ccc6c(c5)C(=O)N(C5CCC(=O)NC5=O)C6=O)CC4)CC3)cc2cc1NC(=O)c1cccc(C(F)(F)F)n1 (stereo not shown) [Example 7]"
  Cmax [ng/mL]: 3260

We next turn to a different molecule, shown below.
Notebook: COc1cc2nn(C3CCN(CC4CCN(CCOc5ccc6c(c5)C(=O)N(C5CCC(=O)NC5=O)C6=O)CC4)CC3)cc2cc1NC(=O)c1cccc(C(F)(F)F)n1 (stereo not shown) [Control group 2, reference compound] , Cmax read as 150

====

Each record here notes measured pIC50.
# target_desc: IRAK4 kinase (Homo sapiens, UniProt Q9NWZ3)
# Sequence (Q9NWZ3 1-460): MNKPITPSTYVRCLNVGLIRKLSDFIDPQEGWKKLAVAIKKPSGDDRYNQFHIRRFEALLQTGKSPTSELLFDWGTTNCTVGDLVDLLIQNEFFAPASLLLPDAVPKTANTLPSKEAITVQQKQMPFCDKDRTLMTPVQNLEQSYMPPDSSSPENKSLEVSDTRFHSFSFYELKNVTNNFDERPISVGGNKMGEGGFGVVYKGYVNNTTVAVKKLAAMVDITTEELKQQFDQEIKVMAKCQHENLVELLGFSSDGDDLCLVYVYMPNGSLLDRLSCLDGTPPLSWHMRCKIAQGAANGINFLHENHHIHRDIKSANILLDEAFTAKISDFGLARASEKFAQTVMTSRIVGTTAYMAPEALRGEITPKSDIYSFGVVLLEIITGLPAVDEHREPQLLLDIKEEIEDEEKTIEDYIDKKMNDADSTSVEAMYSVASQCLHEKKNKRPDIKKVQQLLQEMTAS
# test: IRAK4 kinase activity test (KinEASE-STK HTRF kit)
# Format: biochemical
# particulars: IRAK4 kinase inhibition, 7 μM ATP, 37° C. 120 min
Conceptually, pIC50 converts a concentration in mol/L into minus its log10.

Before answering, review these 2 worked examples.
- molecule: "CC(C)(O)c1cc2nn(C3CCN(CC4CCN(c5ccc6c(c5)C(=O)N(C5CCC(=O)NC5=O)C6=O)CC4)CC3)cc2cc1NC(=O)c1cccc(C(F)(F)F)n1 (stereo not drawn)"
  pIC50: 7.32
- molecule: "CC(C)(O)c1cc2nn(C3CCN(CCC4CCN(c5ccc6c(c5)C(=O)N(C5CCC(=O)NC5=O)C6=O)CC4)CC3)cc2cc1NC(=O)c1cccc(C(F)(F)F)n1 (stereo not drawn)"
  pIC50: 7.39

// returns pIC50 for COc1cc2nn(C3CCN(CCC4CCN(c5ccc6c(c5)C(=O)N(C5CCC(=O)NC5=O)C6=O)CC4)CC3)cc2cc1NC(=O)c1cccc(C(F)(F)F)n1 (stereo not drawn) with IRAK4 kinase (Homo sapiens, UniProt Q9NWZ3); value = 7.31

====

// AUC(0-t) lookup, one value per entry
# test: Pharmacokinetic study in mice
# Format: in vivo, SD mice
# particulars: male, SD, mouse, intravenous injection 1 mg/kg, plasma
Please reply with the bare figure in ng·h/mL and do not write the unit itself.

Please review the entries below; each comes with its answer.
- compound: "COc1cc2nn(C3CCN(CC4CCN(c5ccc6c(c5)C(=O)N(C5CCC(=O)NC5=O)C6=O)CC4)CC3)cc2cc1NC(=O)c1cccc(C(F)(F)F)n1 (stereo not shown) [Example 2]"
  endpoint: "AUC(0-t)"
  numeric_value: 1920
- compound: "CC(C)(O)c1cc2nn(C3CCN(CC4CCN(c5ccc6c(c5)C(=O)N(C5CCC(=O)NC5=O)C6=O)CC4)CC3)cc2cc1NC(=O)c1cccc(C(F)(F)F)n1 (stereo not shown) [Example 7]"
  endpoint: "AUC(0-t)"
  numeric_value: 3110

Query COc1cc2nn(C3CCN(CC4CCN(CCOc5ccc6c(c5)C(=O)N(C5CCC(=O)NC5=O)C6=O)CC4)CC3)cc2cc1NC(=O)c1cccc(C(F)(F)F)n1 (stereo not shown) [Control group 2, reference compound] yields AUC(0-t) of 122

AUC(0-t) reported for this compound CC(C)(O)c1cc2nn(C3CCN(CCCC4CCN(c5ccc6c(c5)C(=O)N(C5CCC(=O)NC5=O)C6=O)CC4)CC3)cc2cc1NC(=O)c1cccc(C(F)(F)F)n1 (stereo not shown) [Example 6] : 2150

====

In this section we review reported IKZF1 degradation rate (%) values for a set of molecules.
# target_desc: IKZF1 (Homo sapiens, UniProt Q13422+Q96SW2)
# Construct: endogenous in cells; host or cells: L363 cells
# Sequence (Q13422 whole entry): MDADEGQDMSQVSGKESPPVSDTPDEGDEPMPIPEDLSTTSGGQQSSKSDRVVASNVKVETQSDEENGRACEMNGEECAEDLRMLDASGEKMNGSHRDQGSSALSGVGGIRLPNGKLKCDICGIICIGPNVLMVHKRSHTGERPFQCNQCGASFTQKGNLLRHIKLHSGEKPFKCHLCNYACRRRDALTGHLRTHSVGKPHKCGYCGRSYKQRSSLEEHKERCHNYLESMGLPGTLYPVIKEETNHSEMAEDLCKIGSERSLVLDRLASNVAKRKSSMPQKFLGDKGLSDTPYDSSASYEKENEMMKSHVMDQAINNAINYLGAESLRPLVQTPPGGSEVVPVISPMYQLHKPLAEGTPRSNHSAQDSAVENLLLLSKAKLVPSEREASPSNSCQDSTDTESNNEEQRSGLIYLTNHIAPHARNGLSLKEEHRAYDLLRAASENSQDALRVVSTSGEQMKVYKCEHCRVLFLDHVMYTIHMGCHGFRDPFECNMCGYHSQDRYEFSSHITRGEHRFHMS
# Sequence (Q96SW2 whole entry): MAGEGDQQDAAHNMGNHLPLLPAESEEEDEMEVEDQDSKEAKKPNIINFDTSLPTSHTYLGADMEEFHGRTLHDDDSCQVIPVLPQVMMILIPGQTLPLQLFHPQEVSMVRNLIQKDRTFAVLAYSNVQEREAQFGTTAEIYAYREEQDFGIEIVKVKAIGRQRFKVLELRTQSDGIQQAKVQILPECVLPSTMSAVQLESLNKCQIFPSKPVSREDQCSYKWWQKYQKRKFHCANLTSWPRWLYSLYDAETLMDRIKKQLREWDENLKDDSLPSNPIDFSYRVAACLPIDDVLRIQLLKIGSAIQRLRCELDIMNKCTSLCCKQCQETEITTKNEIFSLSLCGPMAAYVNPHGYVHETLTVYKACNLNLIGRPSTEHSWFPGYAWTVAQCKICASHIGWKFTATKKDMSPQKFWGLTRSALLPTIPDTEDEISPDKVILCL
# Sequence (Q16531 whole entry partner): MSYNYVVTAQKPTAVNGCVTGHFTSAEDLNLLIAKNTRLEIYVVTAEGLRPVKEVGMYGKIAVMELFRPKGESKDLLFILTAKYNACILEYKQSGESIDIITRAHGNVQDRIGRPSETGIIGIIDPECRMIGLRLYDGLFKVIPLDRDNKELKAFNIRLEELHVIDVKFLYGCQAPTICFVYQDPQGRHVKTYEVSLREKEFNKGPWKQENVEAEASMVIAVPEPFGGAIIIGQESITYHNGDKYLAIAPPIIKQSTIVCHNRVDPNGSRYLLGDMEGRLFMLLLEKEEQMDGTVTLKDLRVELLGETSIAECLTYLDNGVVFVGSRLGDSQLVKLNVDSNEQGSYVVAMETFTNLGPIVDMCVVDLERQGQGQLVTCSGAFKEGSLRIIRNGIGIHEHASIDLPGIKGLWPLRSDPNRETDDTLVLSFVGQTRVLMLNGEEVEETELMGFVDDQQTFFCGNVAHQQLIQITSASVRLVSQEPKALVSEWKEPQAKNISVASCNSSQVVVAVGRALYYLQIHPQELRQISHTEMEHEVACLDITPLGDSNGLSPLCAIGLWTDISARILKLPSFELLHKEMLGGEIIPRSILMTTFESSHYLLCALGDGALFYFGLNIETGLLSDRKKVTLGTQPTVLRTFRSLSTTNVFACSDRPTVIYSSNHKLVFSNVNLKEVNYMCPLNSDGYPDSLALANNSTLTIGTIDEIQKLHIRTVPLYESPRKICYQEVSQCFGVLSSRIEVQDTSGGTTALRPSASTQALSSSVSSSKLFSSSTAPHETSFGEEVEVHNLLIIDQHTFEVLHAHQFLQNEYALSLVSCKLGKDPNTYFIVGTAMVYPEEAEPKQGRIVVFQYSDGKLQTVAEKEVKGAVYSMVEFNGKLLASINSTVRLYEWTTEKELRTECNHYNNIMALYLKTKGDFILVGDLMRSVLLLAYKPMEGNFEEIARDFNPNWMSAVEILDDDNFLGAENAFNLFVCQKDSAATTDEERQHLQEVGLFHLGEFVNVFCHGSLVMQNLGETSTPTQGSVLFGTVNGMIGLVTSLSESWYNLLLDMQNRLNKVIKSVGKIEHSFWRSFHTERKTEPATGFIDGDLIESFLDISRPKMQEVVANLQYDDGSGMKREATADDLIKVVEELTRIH
# test: Degradation of IKZF1 in L363 cells by Western blot
# Assay type: cell-based
# particulars: compound 1000 nM, 16 hours
# Description: The 24-well cell culture plate was inoculated with 0.95 mL L363 cells (Nanjing Co-bioer) per well with a cell density of 6×10^5 cells/well. […] The total protein concentration in the supernatant of cell lysis was determined by BCA protein quantitative kit (Tiangen). […] The protein map was analyzed by Clinx chemiluminescence analysis software for grayscale values. […] The degradation rate was calculated by comparing with the grayscale correction value of the control group.
Reply with just the number (in %).

Below, 2 molecules whose answers are already recorded.
- molecule: "CN(CC1CCN(c2cccc3c2C(=O)N(C2CCC(=O)NC2=O)C3=O)CC1)C[C@H]1CC[C@H](n2cc3cc(NC(=O)c4cccc(C(F)(F)F)n4)c(C(C)(C)O)cc3n2)CC1 (stereo partly drawn) [Control group 3, reference compound]"
  units_symbol: "%"
  IKZF1 degradation rate (%): 97.2
- molecule: "CC(C)(O)c1cc2nn(C3CCN(CCN4CCN(c5ccc6c(c5)C(=O)N(C5CCC(=O)NC5=O)C6=O)CC4)CC3)cc2cc1NC(=O)c1cccc(C(F)(F)F)n1 (stereo not drawn)"
  units_symbol: "%"
  IKZF1 degradation rate (%): 4.3

Per the records, this molecule ( CC(C)(O)c1cc2nn(C3CCN(CCC4CCN(c5ccc6c(c5)C(=O)N(C5CCC(=O)NC5=O)C6=O)CC4)CC3)cc2cc1NC(=O)c1cccc(C(F)(F)F)n1 (stereo not drawn) ) has IKZF1 degradation rate (%) equal to 18.8

Sure, the documented IKZF1 degradation rate (%) for COc1cc2nn(C3CCN(CC4CCN(CCOc5ccc6c(c5)C(=O)N(C5CCC(=O)NC5=O)C6=O)CC4)CC3)cc2cc1NC(=O)c1cccc(C(F)(F)F)n1 (stereo not drawn) [Control group 2, reference compound] is 47.5

Record summary for CC(C)(O)c1cc2nn(C3CCN(CCCC4CCN(c5ccc6c(c5)C(=O)N(C5CCC(=O)NC5=O)C6=O)CC4)CC3)cc2cc1NC(=O)c1cccc(C(F)(F)F)n1 (stereo not drawn) : reported IKZF1 degradation rate (%) = 26.7

In plain terms, Nc1cccc2c1C(=O)N(C1CCC(=O)NC1=O)C2=O (stereo not drawn) [Pomalidomide, reference compound] has a documented IKZF1 degradation rate (%) of 99.7

====

Listing of recorded AUC(0-t) by entry.
# test: Pharmacokinetic study in mice
# Type: in vivo, SD mice
# particulars: male, SD, mouse, po, gavage administration 100 mg/kg, plasma
Field: numeric (ng·h/mL). Do not append units.

- compound: "CC(C)(O)c1cc2nn(C3CCN(CCCC4CCN(c5ccc6c(c5)C(=O)N(C5CCC(=O)NC5=O)C6=O)CC4)CC3)cc2cc1NC(=O)c1cccc(C(F)(F)F)n1 (stereo not shown)"
  endpoint: "AUC(0-t)"
  numeric_value: 30500
- compound: "COc1cc2nn(C3CCN(CC4CCN(c5ccc6c(c5)C(=O)N(C5CCC(=O)NC5=O)C6=O)CC4)CC3)cc2cc1NC(=O)c1cccc(C(F)(F)F)n1 (stereo not shown)"
  endpoint: "AUC(0-t)"
  numeric_value: 22400
- compound: "COc1cc2nn(C3CCN(CC4CCN(CCOc5ccc6c(c5)C(=O)N(C5CCC(=O)NC5=O)C6=O)CC4)CC3)cc2cc1NC(=O)c1cccc(C(F)(F)F)n1 (stereo not shown) [Control group 2, reference compound]"
  endpoint: "AUC(0-t)"
  numeric_value: 1720

Field: next compound
Item: CC(C)(O)c1cc2nn(C3CCN(CC4CCN(c5ccc6c(c5)C(=O)N(C5CCC(=O)NC5=O)C6=O)CC4)CC3)cc2cc1NC(=O)c1cccc(C(F)(F)F)n1 (stereo not shown) | AUC(0-t): 41600

The origin of these recorded values is patent US12624019B2.
